Documented pest or weed control at 200 ppm across a set of compounds
- Tested on: Zymoseptoria tritici
- MEASUREMENT_NOTES: Septoria leaf blotch of wheat, whole-plant fungicidal activity (SEPTTR)
- Format: in vivo, Zymoseptoria tritici on wheat plants (variety 'Yuma')
- TEST_CONDITIONS: 72 h, 3DC (3 day curative), read-out: % Disease Control Rating SEPTTR

The examples below pair each entry with its known result.
| MOLECULE_SMILES | MEASURED |
| --- | --- |
| CCN(C)/C=N/c1cc(C)c(C(=O)Cc2c(F)cc(F)cc2F)cc1OC | < 20% |
| CCN(/C=N/c1cc(C)c(C(=O)Cc2c(F)cc(F)cc2F)cc1C)CC | < 20% |
| CCN(C)/C=N/c1ccc(C(=O)CC2CCCCC2)c(C)c1C | < 20% |
| Cc1cc(C(=O)CC2CCCCC2)c(C)cc1/N=C/N(C)CC(F)(F)F | < 20% |
| CCN(C)/C(C)=N/c1cc(C)c(C(=O)Cc2c(F)cc(F)cc2F)cc1C | < 20% |
| CCN(CC)/C(S)=N/c1cc(C)c(C(=O)CC2CCCCC2)cc1C | < 20% |

Kindly consider the entry below.
Exercise: Endpoint output: pest or weed control at 200 ppm of CCN(C)/C=N/c1cc(C)c(C(=O)Cc2cccc(OC(F)(F)F)c2)cc1C . Value?
Key: < 20%

###

- System: Phakopsora pachyrhizi
- MEASUREMENT_NOTES: Asian soybean rust, whole-plant fungicidal activity (PHAKPA)
- Format: in vivo
- TEST_CONDITIONS: 72 h, 3DC (3 day curative), read-out: % Disease Control Rating PHAKPA
Quick reference: pest or weed control at 200 ppm of the listed items.

Take a look at these entries with their results.
| MOLECULE_SMILES | TARGET_ENTITY | MEASURED |
| --- | --- | --- |
| Cc1cc(C(=O)Cc2c(F)cc(F)cc2F)c(C)cc1/N=C1\CCCCN1C | Phakopsora pachyrhizi | > 85% |
| Cc1cc(C(=O)CC2CCCCC2)c(C)cc1/N=C(\S)N(C)Cc1ccccc1 | Phakopsora pachyrhizi | < 20% |
| Cc1cc(C(=O)CC2CCCCC2)c(C)cc1/N=C/N(C)C | Phakopsora pachyrhizi | > 85% |

Exercise: What value of pest or weed control at 200 ppm has been recorded for this entry: CCN(C)/C=N/c1cc(C)c(C(=O)Cc2ccc(OC(F)F)cc2)cc1C
Key: > 85%

Exercise: Record request: pest or weed control at 200 ppm value, item CCN(C)/C=N/c1cc(C)c(C(=O)Cc2ccc(F)cc2F)cc1C
Key: > 85%

Exercise: So what's the measured pest or weed control at 200 ppm for this one? CCN(C)/C=N/c1cc(C)c(C(=O)C2CCC2)cc1F
Key: > 85%

Exercise: For CCN(C)/C=N/c1ccc(C(=O)CC2CCCC2)cc1C , what is its reported pest or weed control at 200 ppm?
Key: > 85%

###

- System: Zymoseptoria tritici
- MEASUREMENT_NOTES: Septoria leaf blotch of wheat, whole-plant fungicidal activity (SEPTTR)
- Assay type: in vivo, Zymoseptoria tritici on wheat plants (variety 'Yuma')
- TEST_CONDITIONS: 72 h, 3DC (3 day curative), read-out: % Disease Control Rating SEPTTR
RESULT_TYPE: pest or weed control at 200 ppm

Solved entries:
| COMPOUND | pest or weed control at 200 ppm |
| --- | --- |
| CCN(C)/C=N/c1cc(C)c(C(=O)Cc2ccc(C(C)(C)C)cc2)cc1C [Compound 67] | < 20% |
| Cc1cc(C(=O)Cc2c(F)cc(F)cc2F)c(C)cc1/N=C/N(C)C [Compound 76] | < 20% |
| CCN(C)/C=N/c1cc(C)c(C(=O)C2CCCCC2)cc1C [Compound 26] | 20 to 50% |
| CCN(C)/C=N/c1cc(C)c(C(=O)CC(C)(C)C)cc1C [Compound 21] | < 20% |
| CCN(C)/C=N/c1cc(C)c(C(=O)Cc2ccc(SC(F)(F)F)cc2)cc1C [Compound 65] | 20 to 50% |
| CCc1ccc(CC(=O)c2cc(C)c(/N=C/N(C)CC)cc2C)cc1 [Compound 6] | 20 to 50% |
| CCN(C)/C=N/c1cc(C)c(C(=O)C2CCC2)cc1C [Compound 25] | < 20% |
| Cc1cc(C(=O)CC2CCCCC2)c(C)cc1/N=C(\S)N(C)C [Compound 52] | < 20% |

Pending compound:
Exercise: pest or weed control at 200 ppm for Cc1cc(C(=O)CC2CCCCC2)c(C)cc1/N=C/N(C)C1CC1 [Compound 60] ?
Key: < 20%
